Provide the recorded IC50 for the entries that follow.
# Test system: HEK293
# procedure.text: NOD2 signaling inhibitors in MDP-stimulated cells, cell-based, uHTS, luminescence (AID 2001)
# Assay type: functional
# details: Homo sapiens
Activity calls are given as the source filed them.

Q) # query: IC50 of entry `CCCc1nc(SCC(=O)N2CCC(Cc3ccccc3)CC2)c2c(=O)n(C)c(=O)n(C)c2n1`
A) 5.22 µM (active)

Q) # query: IC50 of entry COc1cc(OC)c(OC)cc1/C=C1\CC(C)C/C(=C\c2cc(OC)c(OC)cc2OC)C1=O (centres undefined)
A) 6.92 µM (active)

Q) # query: IC50 of entry `O=C(Nc1ccc(Oc2cccnc2)nc1)c1ccc(C(F)(F)F)cc1`
A) 8.57 µM (active)

Q) # query: IC50 of entry `C=CCn1c(C)cc(C(=O)COc2ccc(C)nc2[N+](=O)[O-])c1C`
A) > 20 µM (inactive)

* * *

# system: Bcl-2-related protein A1 (Mus musculus, UniProt Q07440);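 further: confirmatory dose–response counterscreen on Bfl-1, used to check hits from a UBC13 polyubiquitin inhibitor campaign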
# Sequence (Q07440 whole entry): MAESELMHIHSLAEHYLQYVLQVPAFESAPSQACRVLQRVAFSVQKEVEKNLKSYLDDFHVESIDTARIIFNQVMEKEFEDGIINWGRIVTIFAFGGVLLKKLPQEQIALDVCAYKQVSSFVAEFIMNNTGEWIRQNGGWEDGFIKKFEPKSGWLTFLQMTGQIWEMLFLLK
# Format: functional
Active and inactive are the calls of the source.
Hello, when you answer, please use one of the following outcomes: active, inactive

Q) For this molecule, state the assay outcome: C#CCOCCOCCOCCNc1nc(N2CCN(C(=O)C([C@@H](C)O)n3cc([C@@H](N)CCCCN)nn3)CC2)nc(N2CCN(C(=O)[C@H](CCCN=C(N)N)n3cc(C(N)[C@@H](C)CC)nn3)CC2)n1 (stereo partly specified)
A) inactive

Q) For this molecule, state the assay outcome: `COc1ccc(NS(=O)(=O)c2cc(C(=O)N3CCC3)ccc2C)cc1`
A) inactive

Q) For this molecule, state the assay outcome: CC(C)CC(C(=O)NC(C)(C)C)N(Cc1ccccc1Cl)C(=O)c1snc(C(N)=O)c1N (stereo unspecified)
A) inactive

Q) For this molecule, state the assay outcome: `COc1ccc(-c2cc(C#N)nc(N3CCNCC3)n2)cc1`
A) inactive

Q) For this molecule, state the assay outcome: O=C(Nc1cccc(C2=NCCN2)c1)Nc1cccc(C2=NCCN2)c1 [IMIDOCARB DIPROPIONATE]
A) inactive

Q) For this molecule, state the assay outcome: `COc1ccc(/C=N/Nc2cc(C)nc3ccc(OC)cc23)c(OC)c1`
A) active

* * *

Provide the recorded IC50 for the entries that follow.
# system: UniProtKB P00735
# procedure.text: thrombin inhibition, dose response, biochemical, fluorescence polarization, uHTS hits (AID 602369)
# Assay type: functional
Activity calls are given as the source filed them.

Q) # query: IC50 of entry `COc1cc2cc3c(N)c(C(=O)Nc4sc(C)c(C)c4C#N)sc3nc2cc1OC`
A) 25.8 µM (active)

Q) # query: IC50 of entry O=C(O)C(Cc1ccccc1)N1C(=O)/C(=C/C=C/c2ccco2)SC1=S (stereo not drawn)
A) 75.3 µM (active)

Q) # query: IC50 of entry CCCCC1=CC2=CC(=O)C(C)(OC(=O)C3CCCC3)C(=O)C2=CO1 (stereo not drawn)
A) 7.84 µM (active)

Q) # query: IC50 of entry `CC(C)Oc1ccc(/C=C(\NC(=O)/C=C/c2ccco2)C(=O)NCCc2nc3ccccc3[nH]2)cc1`
A) 55.6 µM (active)

Q) # query: IC50 of entry `CCOc1ccc(C(=O)CCC(=O)N2CCN(c3ncccn3)CC2)cc1`
A) 34.3 µM (active)

Q) # query: IC50 of entry `Cc1ccccc1C(=O)/C=C1/SCC(=O)N1C`
A) 37.3 µM (active)

Q) # query: IC50 of entry `O=C(CN1C(=O)/C(=C/c2ccco2)SC1=S)Nc1ccc(C(=O)O)c(O)c1`
A) 45.8 µM (active)

Q) # query: IC50 of entry CCCCCCCCCCCCCCC(O)C[N+](C)(CCO)CCO (stereo not drawn)
A) 50 µM (active)
